- test: APR_HepG2_CellLoss_72hr: Apredica 72-hour HepG2 Assay for Cell Loss (AID 2282915)
- experimental_context: high-content imaging
Active and inactive are the calls of the source. The calls were made as follows: active = hit-call score of the fitted dose curve at least 0.9, where 1 is the maximum; inactive = score below 0.9.
Write down the outcome that applies. Available outcomes: active, inactive

Please review the following examples before continuing.
>>> group_label("CCOC(=O)COc1cc(-n2ncc(C(F)(F)F)c(C)c2=O)c(F)cc1Cl")
"inactive"
>>> group_label("CCCCC(CC)CN1C(=O)C2C3C=CC(C3)C2C1=O (stereo not drawn)")
"active"
>>> group_label("COC(=O)c1ccc(I)cc1S(=O)(=O)NC(=O)Nc1nc(C)nc(OC)n1")
"inactive"
>>> group_label("C#C[C@]1(O)CC[C@H]2[C@@H]3CCC4=CC(=O)CC[C@@H]4[C@H]3CC[C@@]21CC")
"inactive"
>>> group_label("CCOC(=O)c1ccc(O)cc1")
"inactive"
>>> group_label("CCCCCOC(=O)COc1cc(N2C(=O)C3=C(CCCC3)C2=O)c(F)cc1Cl")
"active"

q: Name the outcome recorded for O=C(Nc1ccc([N+](=O)[O-])cc1Cl)c1cc(Cl)ccc1O in the assay.
a: active

q: Name the outcome recorded for CCCCOCCOCCOCc1cc2c(cc1CCC)OCO2 in the assay.
a: active

q: Name the outcome recorded for S=C([S-])NCCNC(=S)[S-].[Mn+2] in the assay.
a: active

q: Name the outcome recorded for CCCN(CCC)C(=O)SCC in the assay.
a: inactive

q: Name the outcome recorded for CC1(C)C(C=C(Cl)Cl)C1C(=O)OCc1cccc(Oc2ccccc2)c1 (stereo not drawn) in the assay.
a: active

q: Name the outcome recorded for N#CSCSc1nc2ccccc2s1 in the assay.
a: active

q: Name the outcome recorded for CC(C)CCCCCCc1ccc(O)cc1 in the assay.
a: active

###

- Read-out: Cytochrome P450 2B6 (Homo sapiens)
- test: CLD_CYP2B6_48hr: CellzDirect (CLD) Gene Expression Assay for xenobiotic metabolism (CYP2B6) at 48 hours (AID 2283699);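 also: actives raise transcript level above DMSO so potency reflects induction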
Inconclusive results are not listed. Activity calls are given as the source filed them. Rule for the calls: active = hit-call score of the fitted dose curve at least 0.9, where 1 is the maximum; inconclusive = response in the unintended direction; inactive = score below 0.9.
Write down the outcome that applies. Available outcomes: 1.0 = active, 0.0 = inactive

>>> group_label("COC(=O)c1c(Cl)nn(C)c1S(=O)(=O)NC(=O)Nc1nc(OC)cc(OC)n1")
0.0

q: Name the outcome recorded for COC(=O)c1cccc(C)c1S(=O)(=O)NC(=O)Nc1nc(OCC(F)(F)F)nc(N(C)C)n1 in the assay.
a: 1.0

q: Name the outcome recorded for CCCN(CCC)c1c([N+](=O)[O-])cc(C(F)(F)F)c(N)c1[N+](=O)[O-] in the assay.
a: 1.0

q: Name the outcome recorded for c1ccc(Nc2ccccc2)cc1 in the assay.
a: 1.0

q: Name the outcome recorded for CCCCC(CC)CN1C(=O)C2C3C=CC(C3)C2C1=O (stereo not drawn) in the assay.
a: 1.0

q: Name the outcome recorded for CCC(O)=C1C(=O)CC(C(=O)O)CC1=O (stereo not drawn) in the assay.
a: 1.0

q: Name the outcome recorded for CCCCOC(=O)C(C)Oc1ccc(Oc2ccc(C(F)(F)F)cn2)cc1 (stereo not drawn) in the assay.
a: 0.0

q: Name the outcome recorded for OB(O)O in the assay.
a: 0.0

###

- test: ATG_ERE_CIS: Attagene CIS-FACTORIAL HepG2 Assay for Estrogen Response Element (ERE) (AID 2282940)
- experimental_context: HepG2 ERE cis-reporter, Attagene RNA transcript; actives raise or lower the signal
- Description: ATG_CIS is a cell-based, multiplexed-readout assay that uses HepG2, a human liver cell line, with measurements taken at 24 hours after chemical dosing in a 24-well plate.ATG_ERE_CIS is one of 52 assay component(s) measured or calculated from the ATG_CIS assay. […] This assay endpoint, ATG_ERE_CIS, was analyzed with bidirectional fitting relative to DMSO as the negative control and baseline of activity. […]
Calls of active or inactive are those of the source. The calls were made as follows: active = hit-call score of the fitted dose curve at least 0.9, where 1 is the maximum; inactive = score below 0.9.
Write down the outcome that applies. Available outcomes: T for active, F for inactive

>>> group_label("CCOC(=O)C(C)Oc1ccc(Oc2cnc3cc(Cl)ccc3n2)cc1 (configuration not stated)")
"F"
>>> group_label("CCCN(CCC)c1c([N+](=O)[O-])cc(C(F)(F)F)c(N)c1[N+](=O)[O-]")
"F"
>>> group_label("C#CCOC(=O)[C@@H](C)Oc1ccc(Oc2ncc(Cl)cc2F)cc1")
"F"
>>> group_label("CCN(Cc1c(F)cccc1Cl)c1c([N+](=O)[O-])cc(C(F)(F)F)cc1[N+](=O)[O-]")
"T"
>>> group_label("COc1c(Cl)ccc(Cl)c1C(=O)O")
"F"

q: Name the outcome recorded for COCCO in the assay.
a: F

q: Name the outcome recorded for O=C(O)C1(C(=O)Nc2ccc(Cl)cc2Cl)CC1 in the assay.
a: F

q: Name the outcome recorded for OB(O)O in the assay.
a: F

Where do these numbers come from? They come from PubChem BioAssay (EPA / NIEHS).
